All values here come from patent US20250197641A1.

procedure text: Transmittance of absorption membrane before and after reliability evaluation (Test Example 1)
Type: physicochemical
experimental context: silicone resin membrane; after 85° C., 85% RH, 120 hours
I'd appreciate it if you could supply 425~465 nm Tave, A values for the items below.
Kindly answer with a numeric value in %, unit omitted.

Recorded 425~465 nm Tave, A (molecule CC1(C)C(/C=C/C=C/C=C/C=C2\N(C[Si](C)(C)C)c3ccc4ccccc4c3C2(C)C)=[N+](C[Si](C)(C)C)c2ccc3ccccc3c21 ): 89.5

Recorded 425~465 nm Tave, A (molecule CCCCN1\C(=C/C=C/C=C/C=C/C2=[N+](CCCC)c3ccc4ccccc4c3C2(C)C)C(C)(C)c2c1ccc1ccccc21 ): 89.6

Recorded 425~465 nm Tave, A (molecule CCCCN1/C(=C\C=C2/CCC(/C=C/C3=[N+](CCCC)c4ccccc4C3(C)C)=C2Cl)C(C)(C)c2ccccc21 ): 87

Recorded 425~465 nm Tave, A (molecule CC1(C)C(/C=C/C2=C(Cl)C(=C/C=C3\N(C[Si](C)(C)C)c4ccccc4C3(C)C)/CC2)=[N+](C[Si](C)(C)C)c2ccccc21 ): 87.9

Recorded 425~465 nm Tave, A (molecule CC1(C)C(/C=C/C=C/C=C/C=C2\N(C[Si](C)(C)C)c3ccccc3C2(C)C)=[N+](C[Si](C)(C)C)c2ccccc21 ): 89.8

Recorded 425~465 nm Tave, A (molecule CCCCN1\C(=C/C=C/C=C/C=C/C2=[N+](CCCC)c3ccccc3C2(C)C)C(C)(C)c2ccccc21 ): 88.9

----------
procedure text: Transmittance of absorption membrane before and after reliability evaluation (Test Example 1)
Type: physicochemical
experimental context: silicone resin membrane; after 85° C., 85% RH, 120 hours
I'd appreciate it if you could supply 425~465 nm Tmin, A values for the items below.
Kindly answer with a numeric value in %, unit omitted.

Recorded 425~465 nm Tmin, A (compound CCCCN1\C(=C/C=C/C=C/C=C/C2=[N+](CCCC)c3ccc4ccccc4c3C2(C)C)C(C)(C)c2c1ccc1ccccc21 ): 88.7

Recorded 425~465 nm Tmin, A (compound CCCCN1/C(=C\C=C2/CCC(/C=C/C3=[N+](CCCC)c4ccccc4C3(C)C)=C2Cl)C(C)(C)c2ccccc21 ): 86.6

Recorded 425~465 nm Tmin, A (compound CCCCN1\C(=C/C=C/C=C/C=C/C2=[N+](CCCC)c3ccccc3C2(C)C)C(C)(C)c2ccccc21 ): 87.5

----------
procedure text: Transmittance of absorption membrane before and after reliability evaluation (Test Example 1)
Format: physicochemical
experimental context: silicone resin membrane about 6 μm; before reliability evaluation
measured parameter: 466~480 nm Tmin, B (%)
Kindly answer with a numeric value in %, unit omitted.

Recorded 466~480 nm Tmin, B (compound CC1(C)C(/C=C/C2=C(Cl)C(=C/C=C3\N(C[Si](C)(C)C)c4ccccc4C3(C)C)/CC2)=[N+](C[Si](C)(C)C)c2ccccc21 [Embodiment 3] ): 88.1

Recorded 466~480 nm Tmin, B (compound CC1(C)C(/C=C/C=C/C=C/C=C2\N(C[Si](C)(C)C)c3ccccc3C2(C)C)=[N+](C[Si](C)(C)C)c2ccccc21 [Embodiment 1] ): 90.7

Recorded 466~480 nm Tmin, B (compound CC1(C)C(/C=C/C=C/C=C/C=C2\N(C[Si](C)(C)C)c3ccc4ccccc4c3C2(C)C)=[N+](C[Si](C)(C)C)c2ccc3ccccc3c21 [Embodiment 2] ): 89.8

Recorded 466~480 nm Tmin, B (compound CCCCN1/C(=C\C=C2/CCC(/C=C/C3=[N+](CCCC)c4ccccc4C3(C)C)=C2Cl)C(C)(C)c2ccccc21 [Comparative Example 3] ): 88

Recorded 466~480 nm Tmin, B (compound CCCCN1\C(=C/C=C/C=C/C=C/C2=[N+](CCCC)c3ccccc3C2(C)C)C(C)(C)c2ccccc21 [Comparative Example 1] ): 89.8
